Tested on: T-47D breast
Assay: NCI tumour cell line growth inhibition, 48 h
Quantity kind: TGI

1) O=C(c1ccc(Cl)cc1)N(C(=S)OCc1ccccn1)c1ccccc1; 93.5 µM
2) CC(OC(=O)C(CC(=O)OC(C)(C)C)NC(=O)OC(C)(C)C)C(=O)OCc1ccccc1 (stereo unspecified); > 100 µM
3) Cc1ccc2nc(C=Nc3ccc(Cl)cc3)cc(C)c2c1; 48.1 µM
4) CC(C)Cc1cc2c(cc1O)CCC1C2CC[C@@]2(C)C1CC[C@@H]2O (stereo partly specified); 23.4 µM
5) Cn1c(=O)c(Oc2ccc(F)cc2F)cc2cnc(NC3CCS(=O)(=O)CC3)nc21; > 25 µM
6) COc1ccc(C2CC3(c4ccccc4)ON=C(c4ccccc4)N3c3ccccc3S2)cc1 (stereo unspecified); > 100 µM
7) CS(=O)(=O)CC(=O)c1ccccc1; > 100 µM
8) CCOC(=O)C(C(=S)SC)c1nn2c(=O)cc(C)nc2s1 (stereo unspecified); 42.6 µM
9) COc1ccc(/C=C2\C=C(c3ccccc3)N(CCc3ccccc3)C2=O)cc1OC; 28.1 µM
10) C[C@@H](Oc1ccc(C(=O)NS(=O)(=O)C(C)(C)C)cc1C(F)(F)F)c1ccc(Oc2ccccc2)cn1; 32.5 µM

Given the molecule O=C(O)c1ccc(C(=O)O)c(C(=O)Nc2ccc3c(c2)C(=O)c2ccccc2-3)c1 , what is its reported TGI? > 100 µM

Given the molecule CC(=O)N1N=C2/C(=C/c3ccc(Cl)cc3)CC(C)CC2C1c1ccc(Cl)cc1 (stereo unspecified) , what is its reported TGI? 61.8 µM

Given the molecule CCCCCCCCCCCCOC1C(CNC(=O)C2OC3OC(C)(C)OC3C2NC(=O)Nc2ccc(CC(=O)NC(Cc3ccccc3)C(=O)O)cc2)OC2OC(C)(C)OC21 (stereo unspecified) , what is its reported TGI? > 25 µM

Given the molecule C[C@@H](NC(=O)c1ccc(CNC(=O)/C=C/c2cccc(Oc3ccccc3)c2)cc1)c1ccccc1 , what is its reported TGI? > 100 µM

Given the molecule CC(C)(CCCCC(C)(C)[N+](C)(C)C)[N+](C)(C)C , what is its reported TGI? > 100 µM

Given the molecule FC(F)(Sc1ncc[nH]1)c1nc2ccccc2o1 , what is its reported TGI? > 100 µM

====

// values below are reported TGI
System: UO-31 renal
Test: NCI tumour cell line growth inhibition, 48 h

Observe how each entry below is paired with its result.
1. CN(Cc1cc(Cl)cc(Cl)c1O)Cc1c(O)ccc2ccccc12; 34.7 µM
2. CC1(c2ccccc2)CC(c2cccc([N+](=O)[O-])c2)=NO1 (stereo not given); > 100 µM
3. CC(=O)Oc1ccc(/C(=C(\C)c2ccc(Cl)cc2)c2ccc(OCCN3CCCCC3)cc2)cc1; 3.09 µM
4. Cn1c(=O)c(Oc2ccc(F)cc2F)cc2cnc(NC3CCS(=O)(=O)CC3)nc21; > 25 µM
5. CN1CCN(Cc2ccc(NC(=O)c3cccc(C#Cc4cnc(N)c5ncccc45)c3F)cc2C(F)(F)F)CC1; 1.54 µM

Given the molecule CSc1nc2c(ncn2C2OCC(O)C(O)C2O)c(=O)n1C (stereo not given) , what is its reported TGI? > 100 µM

Given the molecule O=C(O)CC(Sc1ccccc1)c1ccccc1 (stereo not given) , what is its reported TGI? > 100 µM

Given the molecule O=c1cn[nH]c(=S)n1/N=C/c1c[nH]c2ccccc12 , what is its reported TGI? > 100 µM

Given the molecule Fc1ccc(-c2sc(-c3cccs3)cc2Cc2cccs2)cc1 , what is its reported TGI? > 100 µM

Given the molecule Cn1cc(C2=C(c3cn(C)c4ccccc34)C(=O)NC2=O)c2ccccc21 , what is its reported TGI? > 25 µM

====

// values below are reported TGI
System: HCC-2998 colon
Test: NCI tumour cell line growth inhibition, 48 h
Form entry: value (µM) — number only.

Observe how each entry below is paired with its result.
1. Clc1ccc(-c2cc(-c3ccccc3)nc(NCCNc3ccnc4cc(Cl)ccc34)n2)cc1; 3.56
2. O=C1c2ccccc2-c2c1c1ccccc1c(=O)n2CCCNCCCCNCCCN1C(=O)c2ccccc2C2C(=O)c3ccccc3C21 (stereo not given); 0.908
3. CSc1ccc(/C=C2\N=C(c3ccccc3)N(c3nc4cc(C)c(C)cc4s3)C2=O)cc1; 82.4

Please find the next compound below.
Given the compound COc1cccc(NC(=O)C(=O)C(C(=O)c2ccccc2F)C2OC(=O)c3ccccc32)c1 (stereo not given) , what is its reported TGI? 39.2

====

Test system: SF-295 CNS
Assay: NCI tumour cell line growth inhibition, 48 h
// values below are reported TGI

Observe how each entry below is paired with its result.
1) CCOc1cc2oc(C)cc(=O)c2c(OC)c1C=Nc1ccc(Cn2c(C)nc3ccccc32)cc1; > 100 µM
2) O=C(C/C(=N/O)c1cc(-c2ccccc2)no1)c1ccccc1; > 100 µM
3) C[C@@H](NC(=O)c1ccc(CNC(=O)/C=C/c2cccc(Oc3ccccc3)c2)cc1)c1ccccc1; > 100 µM
4) COc1ccc(/C=C2\CCC/C(=C\c3ccc(O)c(CN4CCCCC4)c3)C2=O)cc1; 36.4 µM
5) CC(=O)OC1COC(N2C(=O)C(=O)c3cc(Br)ccc32)C(OC(C)=O)C1OC(C)=O (stereo not given); > 100 µM
6) O=c1cn[nH]c(=S)n1/N=C/c1c[nH]c2ccccc12; > 100 µM
7) CC(=O)Nc1ccc(COC(O)CN2CCCCC2)cc1[N+](=O)[O-] (stereo not given); > 100 µM
8) COc1cc(-c2c(C#N)c(N)nc(N3CCOCC3)c2C#N)cc(OC)c1OC; > 100 µM

Given the molecule NCCNCc1c2ccccc2c(CNCCN)c2ccccc12 , what is its reported TGI? 82.8 µM

Given the molecule O=c1c2cc(Cl)cc(Cl)c2oc2nc3n(c(=O)c12)CCCS3 , what is its reported TGI? > 100 µM

Given the molecule CC(C)(C)C1=CC(=C2C(=O)C(=O)c3ccccc3C2=O)C=C(C(C)(C)C)C1=O , what is its reported TGI? > 100 µM

====

Test system: UO-31 renal
Experiment: NCI tumour cell line growth inhibition, 48 h; in the data active means GI50 below about 0.43 µM; inactive means the rest
Classes to choose from: active, inactive

1) C[C@@H](Oc1ccc(C(=O)NS(=O)(=O)C(C)(C)C)cc1C(F)(F)F)c1ccc(Oc2ccccc2)cn1; inactive

Any idea what this test logged for Cc1cc(N(CCCl)CCCl)ccc1C=Nc1ccc2ccccc2c1 ? inactive

Any idea what this test logged for O=S(=O)(/N=c1/scc(-c2ccccc2)n1-c1ccccc1)c1ccc(N2N=C3c4ccccc4CC3C2c2cccs2)cc1 (stereo not given) ? inactive

Any idea what this test logged for CC(=O)N1N=C2/C(=C/c3ccc(Cl)cc3)CC(C)CC2C1c1ccc(Cl)cc1 (stereo not given) ? inactive

Any idea what this test logged for CN1C/C=C/CCOc2cccc(c2)-c2ccnc(n2)Nc2cccc(c2)C1 ? active

Any idea what this test logged for COc1cc([C@@H]2C[C@H]2c2cc(SC)n[nH]2)cc(OC)c1OC ? inactive

Any idea what this test logged for CCN(CC)C1CCC(Nc2c(C(C)=O)cnc3ccc(-c4ccc(O)c(Cl)c4)cc23)CC1 (stereo not given) ? active

Any idea what this test logged for CCN1Cc2nc3sc(C)c(C)c3c(=O)n2C=C1C ? inactive

Any idea what this test logged for O=C(Nc1ccc(/C=C/c2ccc(NC(=O)c3cc(S(=O)(=O)O)c4cccnc4c3O)cc2S(=O)(=O)O)c(S(=O)(=O)O)c1)c1cc(S(=O)(=O)O)c2cccnc2c1O ? inactive

Any idea what this test logged for Cc1c(O)c2c(c(O)c1Br)C(=O)C=CC2=O ? inactive

====

System: ACHN renal
Experiment: NCI tumour cell line growth inhibition, 48 h
Quantity kind: TGI (µM)
Form entry: value (µM) — number only.

Observe how each entry below is paired with its result.
1) Cc1cc(C(C)(C)C)cc(CNC2CCCCC2)c1O; 31
2) CC(=O)[CH-]C(=O)c1ccccc1.CC(=O)[CH-]C(=O)c1ccccc1.C[C@]12CCC(=O)C=C1CC[C@@H]1C2CC[C@@]2(C)C1CC[C@@H]2[O-].C[C@]12CCC(=O)C=C1CC[C@@H]1C2CC[C@@]2(C)C1CC[C@@H]2[O-].Cl.[Ti+4] (stereo partly drawn); 49.5
3) NC(N)=N/N=C/c1ccc(-c2ccc(-c3cc(Cl)cc(Cl)c3)s2)cc1; 3.29

Please find the next molecule below.
Given the entry COC(=O)C1=C(C(=O)OC)SC2(S1)C(C(=O)OC)=C(C(=O)OC)Sc1c2ssc1=Nc1ccc(Cl)cc1 , what TGI was observed with ACHN renal? 2.7

====

Tested on: HCT-15 colon
Experiment: NCI tumour cell line growth inhibition, 48 h; in the data active = GI50 below about 0.43 µM; inactive = the rest
Classes to choose from: active, inactive

Past entries and their recorded results:
1. Cc1ccc(Cl)c(Nc2ccccc2C(=O)O)c1Cl; inactive
2. O=c1oc2ccc(Br)cc2c(=O)n1-c1ccc(I)cc1F; active
3. O=C1c2cccc(NCCN=Cc3ccccc3O)c2C(=O)c2c(NCCN=Cc3ccccc3O)cccc21; inactive

Here is another compound to look at.
Any idea what this test logged for COc1cc(/C=C/C(=O)N2CCN(C(=O)c3cc(OC)c(OC)c(OC)c3)CC2)ccc1OCCCOc1cc2c(cc1OC)C(=O)N1CCC[C@H]1C=N2 ? inactive

The reported numbers originate from PubChem BioAssay (NCI).
